src = PubChem BioAssay AID743116

test_target: Fibroblast growth factor 22 (Homo sapiens)
method: FGF22 binders by thermal shift, dose response, biophysical, SYPRO orange melt, qPCR instrument, dry powder (AID 743116)
test_conditions: Recombinant FGF22 thermal shift, SYPRO orange fluorescence
The source made the active and inactive calls.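 The calls were made as follows: active = compounds whose dose curve reaches a melting temperature rise of about 0.39 degC within the tested concentrations; inconclusive = flat curve with moderate shift, or unreliable curve fit; inactive = the rest.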
Classes used: label 1 (active), label 0 (inactive)

smiles_notation	test_target	class
O=C(Nc1ccc(S(=O)(=O)N2CCCC2)cc1)c1ccccc1	Fibroblast growth factor 22 (Homo sapiens)	label 1
O=C(N/N=C/c1c[nH]c2ccccc12)c1cccc(O)c1	Fibroblast growth factor 22 (Homo sapiens)	label 1
Cc1cc(NC(=O)Nc2ccc3c(ccn3C)c2)sn1	Fibroblast growth factor 22 (Homo sapiens)	label 1
COc1cc(/C=N/NC(=O)c2cc3ccccc3[nH]2)ccc1O	Fibroblast growth factor 22 (Homo sapiens)	label 1
COC(=O)C[C@H]1CC[C@@H]2[C@@H](COc3ccc(NC(=O)Nc4ccc(C#N)cc4)cc3C(=O)N2C)O1	Fibroblast growth factor 22 (Homo sapiens)	label 0
Nc1ccc(C(=O)N/N=C/c2c[nH]c3ccccc23)cc1	Fibroblast growth factor 22 (Homo sapiens)	label 1
O=C(N/N=C/c1c[nH]c2ccccc12)c1cccc(Cl)c1	Fibroblast growth factor 22 (Homo sapiens)	label 1
O=C(N/N=C/c1c[nH]c2ccccc12)c1cccs1	Fibroblast growth factor 22 (Homo sapiens)	label 1
CCc1cc(-c2[nH]ncc2-c2ccc3c(c2)OCCO3)c(O)cc1O	Fibroblast growth factor 22 (Homo sapiens)	label 1
CSc1ccc(/C=N/NC(=O)c2ccc3nc[nH]c3c2)cc1	Fibroblast growth factor 22 (Homo sapiens)	label 1
Nc1cccc(-c2nc3ccc(C(=O)c4ccccc4)cc3[nH]2)c1	Fibroblast growth factor 22 (Homo sapiens)	label 1
